# credit: patent US20190315711A1

pIC50: −log10 of the molar value.
In what follows, each item is paired with its pIC50 for human Factor XIa (Homo sapiens, UniProt P03951).

Data request: What does the data say about its pIC50? Entry: CC[C@@H](NC(=O)N1C(=O)[C@H](Cc2cc(C)nc(N)c2)[C@H]1C(=O)N(C)c1ccccc1)c1ccc(C)nc1 [Compound 132]
Data returned: 7.00 to 8.00

Data request: Also need Cc1cccc(N(C)C(=O)[C@@H]2[C@@H](Cc3ccnc(N)c3)C(=O)N2C(=O)N[C@@H](C2CCCCC2)C(F)(F)F)c1 [Compound 14] , thanks.
Data returned: 7.00 to 8.00

Data request: Also need CC[C@@H](NC(=O)N1C(=O)[C@H](Cc2ccnc(N)c2)[C@H]1C(=O)N(C)c1ccncc1)c1cncnc1 [Compound 102] , thanks.
Data returned: 7.00 to 8.00

Data request: Also need CCC[C@@H](NC(=O)N1C(=O)[C@H](Cc2ccnc(N)c2)[C@H]1C(=O)N(C)c1ncccn1)c1cccnc1 [Compound 74] , thanks.
Data returned: > 8.00

---

# assay_info: Caco-2 cell permeability assay (A-B and B-A)
# Type: in vitro ADME
# protocol_conditions: human, B-A direction
Would you kindly list Papp B→A at 40 min, 10 μM for each of these molecules?

Data request: What does the data say about its Papp B→A at 40 min, 10 μM? Entry: `CC[C@@H](NC(=O)N1C(=O)[C@H](Cc2ccnc(N)c2)[C@H]1C(=O)N(C)c1ccncc1)c1cccc(OC)c1`
Data returned: 31 to 50 ×10⁻⁶ cm/s

Data request: Also need `CC[C@@H](NC(=O)N1C(=O)[C@H](Cc2ccnc(N)c2)[C@H]1C(=O)N(C)c1ncccn1)c1ccccc1` , thanks.
Data returned: 31 to 50 ×10⁻⁶ cm/s

Data request: Also need `CN(C(=O)[C@@H]1[C@@H](Cc2ccnc(N)c2)C(=O)N1C(=O)N[C@@H](C1CCCCC1)C(F)(F)F)c1cccnc1` , thanks.
Data returned: 11 to 30 ×10⁻⁶ cm/s

Data request: Also need `CC[C@@H](NC(=O)N1C(=O)[C@H](Cc2ccnc(N)c2)[C@H]1C(=O)N(C)c1ncncn1)c1ccccc1` , thanks.
Data returned: > 50 ×10⁻⁶ cm/s

Data request: Also need `CN(C(=O)[C@@H]1[C@@H](Cc2ccnc(N)c2)C(=O)N1C(=O)N[C@@H](C1CC1)C(F)(F)F)c1ccncc1` , thanks.
Data returned: 31 to 50 ×10⁻⁶ cm/s

Data request: Also need `CN(C(=O)[C@@H]1[C@@H](Cc2ccnc(N)c2)C(=O)N1C(=O)NC(c1ccccc1)c1ccccc1)c1ccncc1` , thanks.
Data returned: 31 to 50 ×10⁻⁶ cm/s

Data request: Also need `CC[C@@H](NC(=O)N1C(=O)[C@H](Cc2ccnc(N)c2)[C@H]1C(=O)N(C)c1ccncc1)c1ccc(Cl)cc1` , thanks.
Data returned: 31 to 50 ×10⁻⁶ cm/s

---

# assay_info: Metabolic stability in dog hepatocytes
# Assay type: in vitro ADME
# protocol_conditions: pooled cryopreserved hepatocytes; beagle dog hepatocytes, 2 μM compound, 500,000 cells/mL, 37° C.; read-out: Dog Hepatocyte Stability (T½: min)
Would you kindly list half-life at 2 μM for each of these compounds?

Data request: What does the data say about its half-life at 2 μM? Entry: `CN(C(=O)[C@@H]1[C@@H](Cc2ccnc(N)c2)C(=O)N1C(=O)NC(c1ccccc1)c1ccccc1)c1ccncc1`
Data returned: 2.02 to 4 h

Data request: Also need `CC[C@@H](NC(=O)N1C(=O)[C@H](Cc2ccnc(N)c2)[C@H]1C(=O)N(C)c1ccncc1)c1ccccc1Cl` , thanks.
Data returned: 2.02 to 4 h

Data request: Also need `CCC[C@@H](NC(=O)N1C(=O)[C@H](Cc2ccnc(N)c2)[C@H]1C(=O)N(C)c1ccncc1)c1ccccc1` , thanks.
Data returned: > 4 h

Data request: Also need `CC[C@@H](NC(=O)N1C(=O)[C@H](Cc2ccnc(NC)c2)[C@H]1C(=O)N(C)c1ncccn1)C1CCCCC1` , thanks.
Data returned: < 1 h

Data request: Also need `C[C@@H](NC(=O)N1C(=O)[C@H](Cc2ccnc(N)c2)[C@H]1C(=O)N(C)c1ccccc1)C1CCCCC1` , thanks.
Data returned: < 1 h

Data request: Also need `CC[C@@H](NC(=O)N1C(=O)[C@H](Cc2ccnc(N)c2)[C@H]1C(=O)N(C)c1ccncc1)c1cccc(C#N)c1` , thanks.
Data returned: > 4 h

Data request: Also need `CC[C@@H](NC(=O)N1C(=O)[C@H](Cc2ccnc(N)c2)[C@H]1C(=O)N(C)c1ccncc1)c1cccc(OC)c1` , thanks.
Data returned: > 4 h
